experiment: xn = mol fraction of the nth substance listed, in the solute-free solvent
condition_description: 308.15 K; x2 = 0.1666
property: solubility (g/100 g solution)
Please state the value as a number alone, without comment.

Answered examples (4):
Cc1ccc2cc(Br)ccc2n1 + CC(C)O + O; 0.826
CN1CCC(N(Cc2cccs2)c2ccccc2)CC1 + CCCO + O; 1.61
Nc1cccc2ccncc12 + CC(C)O + O; 0.78
Nc1cccc2ccncc12 + CCCO + O; 0.978

Turning to the following compound.
Consider CN1CCC(N(Cc2cccs2)c2ccccc2)CC1 + CC(C)O + O . Its measured solubility (g/100 g solution) is 1.28

----------
experiment: xn = mol fraction of the nth substance listed, in the solute-free solvent
condition_description: 318.15 K; x2 = 0.06974
Rule: rule met for solubility (g/100 g solution) not less than 0.6, rule not met for anything less.

# example entries with known answers
Nc1cccc2ccncc12 + CC(C)O + O; rule not met
Nc1cccc2ccncc12 + CCCO + O; rule not met
Cc1ccc2cc(Br)ccc2n1 + CC(C)O + O; rule not met

Input: Is reported solubility (g/100 g solution) greater than or equal to 0.6 here: CN1CCC(N(Cc2cccs2)c2ccccc2)CC1 + CCCO + O
Output: rule met

----------
experiment: xn = mol fraction of the nth substance listed, in the solute-free solvent
condition_description: 298.15 K; x2 = 0.5454
property: solubility (g/100 g solution)
Output: the number by itself.

Answered examples (2):
Nc1cccc2ccncc12 + CCCO + O; 1.53
CN1CCC(N(Cc2cccs2)c2ccccc2)CC1 + CCCO + O; 2.74

Record Cc1ccc2cc(Br)ccc2n1 + CC(C)O + O . Reported solubility (g/100 g solution): 1.2

Record summary for CN1CCC(N(Cc2cccs2)c2ccccc2)CC1 + CC(C)O + O : reported solubility (g/100 g solution) = 2.15

Reported solubility (g/100 g solution) for Nc1cccc2ccncc12 + CC(C)O + O was 1.25

----------
experiment: xn = mol fraction of the nth substance listed, in the solute-free solvent
condition_description: 293.15 K; x2 = 0.1139
Classification field: Condition met = solubility (g/100 g solution) at or over 0.7; Condition not met = solubility (g/100 g solution) under 0.7.

Examples from the recorded data:
Nc1cccc2ccncc12 + CC(C)O + O; Condition not met
Nc1cccc2ccncc12 + CCCO + O; Condition not met

Input: Does CN1CCC(N(Cc2cccs2)c2ccccc2)CC1 + CCCO + O have a reported solubility (g/100 g solution) of at least 0.7?
Output: Condition met

Input: Identify whether the reported solubility (g/100 g solution) of the following compound is 0.7 or greater: Cc1ccc2cc(Br)ccc2n1 + CC(C)O + O
Output: Condition not met

----------
experiment: xn = mol fraction of the nth substance listed, in the solute-free solvent
condition_description: 278.15 K; x2 = 0.5454
property: solubility (g/100 g solution)
Form: value (number only, do not type unit).

CN1CCC(N(Cc2cccs2)c2ccccc2)CC1 + CC(C)O + O; 1.55
Cc1ccc2cc(Br)ccc2n1 + CC(C)O + O; 0.596
CN1CCC(N(Cc2cccs2)c2ccccc2)CC1 + CCCO + O; 1.97

Field solubility (g/100 g solution) (entry Nc1cccc2ccncc12 + CC(C)O + O ) reads 0.633

Lab book: solubility (g/100 g solution) of Nc1cccc2ccncc12 + CCCO + O noted as 0.774

----------
Recorded measurements of solubility (g/100 g solution), one per entry
experiment: xn = mol fraction of the nth substance listed, in the solute-free solvent
condition_description: 323.15 K; x2 = 0.1666
Could you keep your reply to the number by itself?

Documented solubility (g/100 g solution) of Nc1cccc2ccncc12 + CC(C)O + O : 1.18

// field: solubility (g/100 g solution); key: CN1CCC(N(Cc2cccs2)c2ccccc2)CC1 + CCCO + O ; value = 2.04

Briefly, solubility (g/100 g solution) measured for Cc1ccc2cc(Br)ccc2n1 + CC(C)O + O : 1.2

The compound Nc1cccc2ccncc12 + CCCO + O showed solubility (g/100 g solution) equal to 1.46

solubility (g/100 g solution) reading for CN1CCC(N(Cc2cccs2)c2ccccc2)CC1 + CC(C)O + O : 1.64

----------
experiment: xn = mol fraction of the nth substance listed, in the solute-free solvent
condition_description: 293.15 K; x2 = 0.4117
Note to self: values exactly at 2 are yes (1). So solubility (g/100 g solution) at or above 2 is yes (1), below is no (0).

Nc1cccc2ccncc12 + CCCO + O; no (0)

Input: Would you say Nc1cccc2ccncc12 + CC(C)O + O shows solubility (g/100 g solution) at minimum 2?
Output: no (0)

Input: Check this compound for solubility (g/100 g solution) at or above 2: CN1CCC(N(Cc2cccs2)c2ccccc2)CC1 + CC(C)O + O
Output: no (0)

Input: Answer whether solubility (g/100 g solution) of Cc1ccc2cc(Br)ccc2n1 + CC(C)O + O is greater than or equal to 2.
Output: no (0)

Input: API: above_or_equal(metric=solubility (g/100 g solution), cutoff=2) for item CN1CCC(N(Cc2cccs2)c2ccccc2)CC1 + CCCO + O
Output: yes (1)

----------
experiment: xn = mol fraction of the nth substance listed, in the solute-free solvent
condition_description: 293.15 K; x2 = 0.7297
property: solubility (g/100 g solution)
Give the figure only, with no unit attached.

Nc1cccc2ccncc12 + CCCO + O; 1.39
CN1CCC(N(Cc2cccs2)c2ccccc2)CC1 + CCCO + O; 2.7
Cc1ccc2cc(Br)ccc2n1 + CC(C)O + O; 1.16

Per the record, Nc1cccc2ccncc12 + CC(C)O + O has solubility (g/100 g solution) of 1.1

The compound CN1CCC(N(Cc2cccs2)c2ccccc2)CC1 + CC(C)O + O showed solubility (g/100 g solution) equal to 2.14

----------
experiment: xn = mol fraction of the nth substance listed, in the solute-free solvent
condition_description: 293.15 K; x2 = 0.5454
Below, each entry is listed with its recorded solubility (g/100 g solution).

Below, 4 compounds whose answers are already recorded.
Cc1ccc2cc(Br)ccc2n1 + CC(C)O + O; 1.03
Nc1cccc2ccncc12 + CC(C)O + O; 1.08
Nc1cccc2ccncc12 + CCCO + O; 1.32
CN1CCC(N(Cc2cccs2)c2ccccc2)CC1 + CC(C)O + O; 1.99

Now look at this entry.
Reported solubility (g/100 g solution) of CN1CCC(N(Cc2cccs2)c2ccccc2)CC1 + CCCO + O : 2.5

----------
experiment: xn = mol fraction of the nth substance listed, in the solute-free solvent
condition_description: 278.15 K; x2 = 0.1666
property: solubility (g/100 g solution)
Kindly provide the number alone.

The following compounds have reported results that may help.
Nc1cccc2ccncc12 + CC(C)O + O; 0.339
Cc1ccc2cc(Br)ccc2n1 + CC(C)O + O; 0.372
CN1CCC(N(Cc2cccs2)c2ccccc2)CC1 + CCCO + O; 1.05
CN1CCC(N(Cc2cccs2)c2ccccc2)CC1 + CC(C)O + O; 0.834

Now turn to the next compound.
get_value(item= Nc1cccc2ccncc12 + CCCO + O , readout=solubility (g/100 g solution)) returns 0.433

----------
experiment: xn = mol fraction of the nth substance listed, in the solute-free solvent
condition_description: 313.15 K; x2 = 0.03225
Mark 0.0 for solubility (g/100 g solution) values under 0.2, and 1.0 for everything at or above.

CN1CCC(N(Cc2cccs2)c2ccccc2)CC1 + CC(C)O + O; 1.0

Input: Answer whether solubility (g/100 g solution) of CN1CCC(N(Cc2cccs2)c2ccccc2)CC1 + CCCO + O is greater than or equal to 0.2.
Output: 1.0

Input: Does solubility (g/100 g solution) meet or surpass 0.2 for Nc1cccc2ccncc12 + CC(C)O + O ?
Output: 0.0

Input: In plain terms: is recorded solubility (g/100 g solution) at least 0.2 for Nc1cccc2ccncc12 + CCCO + O ?
Output: 1.0

Input: Please tell me: is the compound Cc1ccc2cc(Br)ccc2n1 + CC(C)O + O at or over 0.2 in terms of solubility (g/100 g solution)?
Output: 0.0

----------
experiment: xn = mol fraction of the nth substance listed, in the solute-free solvent
condition_description: 298.15 K; x2 = 0.3103
property: solubility (g/100 g solution)
Output spec: single numeric token, no unit.

The examples below pair each entry with its known result.
Nc1cccc2ccncc12 + CCCO + O; 1.16
CN1CCC(N(Cc2cccs2)c2ccccc2)CC1 + CCCO + O; 2.08

Memo: Cc1ccc2cc(Br)ccc2n1 + CC(C)O + O , reported solubility (g/100 g solution): 0.904

Input Nc1cccc2ccncc12 + CC(C)O + O . Output solubility (g/100 g solution): 0.952

Reported solubility (g/100 g solution) ( CN1CCC(N(Cc2cccs2)c2ccccc2)CC1 + CC(C)O + O ) = 1.67
